# EXPERIMENTAL_SYSTEM: stabilized prefusion SARS-CoV-2 S ectodomain (SARS-CoV-2 (Wuhan-Hu-1), UniProt P0DTC2 15-1138)
# PROTOCOL_SUMMARY: not named there; ELISA in Example 4
ASSAY_METRIC: binding result

SEQ ID NOs: 653/657 (HCVR/LCVR) (antibody, V domains shown) VH: EVQLVESGGGLVQPGRSLRLSCAASGFTFDDYAMHWVRQAPGKGLEWVSGISWNSGSIGYADSVKGRFTISRDNAKNSLYLQMNSLRAEDTALYYCAKMGPDPAHDYGRKNDAFDIWGQGTMVTVSS VL: DIVMTQSPSSLSASVGDRVTITCRASQSMSSYLNWYQQKPGKAPKLLIYAASSLQSGVPSRFSGSGSGTDFTLTISSLQPEDFATYYCQQSYSTLTFGGGTKLEIK ... binds
SEQ ID NOs: 41/45 (HCVR/LCVR) (antibody, V domains shown) V domain 1: EVQLVQSGGGLVQPGRSLRLSCAASGFTFGEYAMHWVRQAPGKGLEWVSGISWNSGSIDYADSVKGRFTISRDNAKNSLYLQMNSLRAEDTALYYCAKDMGEAVAGTHYGMDVWGQGTMVTASS V domain 2: QSALTQPPSVSVSPGQTASIPCSGDKLGDIYACWYQQKPGQSPVLVIYQDTKRPSGIPERFSGSNSGNTATLTISGTQAMDEADYYCQAWGSTTAKVFGGGTKLTVP ... binds
SEQ ID NOs: 461/465 (HCVR/LCVR) (antibody, V domains shown) VH: EVQLVESGAEVKKPGSSVKVSCKASGGTFSSYAISWVRQAPGQGLEWMGGIIPIFGTANYAQKFQGRATITTDESTSTAYMELSSLGSEDTAVYYCARTHSYDNSGQYFDYWGQGTMVTVSS VL: DIVMTQSPATLSLSPGERATLSCRASQSVSSFLAWYQQKPGQAPRLLIYDASNRATGIPARFSGSGSGTDFTLTISSLEPEDFAVYYCQQRSNWPPRLTFGGGTKVDIK ... binds
